System: erythrocyte suspensions of horse blood;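 also: Read-out is hemoglobin release into the supernatant, with a buffer-only blank subtracted as the 0% baseline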
Details: 150 µM peptide; horse erythrocytes 5% vol/vol, TRIS buffer pH 7.2, 1 h at 37°C, absorbance 540 nm; relative to melittin 100 μM; ± confidence interval (α = 0.05)
Where a SMILES comes first, the peptide text is derived from it. [ ]: non-standard residue; d: D form. The star is where a group is joined. Hexanoyl = CCCCCC(=O)*
Please provide measured Hemolysis (%) 150 µM for the entries that follow.
I only need the number, in %, no unit after it.

What value of Hemolysis (%) 150 µM has been reported for the following molecule? CCCCCC(=O)NCCCC[C@@H]1NC(=O)[C@H](CCCCN)NC(=O)[C@H](CC(C)C)NC(=O)[C@H](CCCCN)NC(=O)[C@H](CCCCN)NC(=O)[C@H](CCC(N)=O)NC(=O)[C@H](CC(C)C)NC(=O)[C@H](CCCCN)NC(=O)[C@H](CCCCN)NC(=O)[C@@H](Cc2ccccc2)NC1=O [BPC624, c(KKLKK(CO-nC5H11)fKKLQ)] (cyclo(KKLKK(Hexanoyl)[dF]KKLQ)) 53

Note, next up: CCCCCC(=O)NCCCC[C@@H]1NC(=O)[C@H](CCCCN)NC(=O)[C@H](Cc2ccccc2)NC(=O)[C@H](CCCCN)NC(=O)[C@H](CCCCN)NC(=O)[C@H](CC(C)C)NC(=O)[C@H](CCCCN)NC(=O)[C@H](CCCCN)NC(=O)[C@H](CCC(N)=O)NC(=O)[C@H](CC(C)C)NC1=O [BPC582] (cyclo(FKK(Hexanoyl)LQKKLKK)) 92

====

Tested on: Erwinia amylovora PMV6076
Experiment: MIC, in vitro growth inhibition
Format: cell-based
Conditions: TSB, 25°C, 48 h, OD 600 nm; tested at 3.1, 6.2, 12.5, 25, 50 μM; three replicates, experiment repeated twice; MIC = lowest concentration with no growth
Where a SMILES comes first, the peptide text is derived from it. [ ]: non-standard residue; d: D form. The star is where a group is joined. Octanoyl = CCCCCCCC(=O)*; Butyryl = CCCC(=O)*
Please provide measured MIC Ea for the entries that follow.

Under Erwinia amylovora PMV6076: MIC Ea value of CCCCCCCC(=O)NCCCC[C@@H]1NC(=O)[C@H](CCCCN)NC(=O)[C@H](CC(C)C)NC(=O)[C@H](CCCCN)NC(=O)[C@H](CCCCN)NC(=O)[C@H](CCC(N)=O)NC(=O)[C@H](CC(C)C)NC(=O)[C@H](CCCCN)NC(=O)[C@H](CCCCN)NC(=O)[C@H](Cc2ccccc2)NC1=O [BPC498, c(KKLKK(CO-C7H15)FKKLQ)] (cyclo(FKKLQKKLKK(Octanoyl))) ? 25 to 50 µM

Note, next up: CCCC(=O)NCCCC[C@@H]1NC(=O)[C@H](CCCCN)NC(=O)[C@H](CCC(N)=O)NC(=O)[C@H](CC(C)C)NC(=O)[C@H](CCCCN)NC(=O)[C@H](CCCCN)NC(=O)[C@H](Cc2ccccc2)NC(=O)[C@H](CCCCN)NC(=O)[C@H](CCCCN)NC(=O)[C@H](CC(C)C)NC1=O [BPC708] (cyclo(FKKLQKK(Butyryl)LKK)) 25 to 50 µM

Note, next up: CCCCCCCC(=O)NCCCC[C@H]1NC(=O)[C@H](CCCCN)NC(=O)[C@H](CC(C)C)NC(=O)[C@H](CCCCN)NC(=O)[C@H](CCCCN)NC(=O)[C@H](CCC(N)=O)NC(=O)[C@H](CC(C)C)NC(=O)[C@H](CCCCN)NC(=O)[C@H](CCCCN)NC(=O)[C@H](Cc2ccccc2)NC1=O [BPC666, c(KKLKk(CO-C7H15)FKKLQ)] (cyclo(FKKLQKKLK[dK](Octanoyl))) 25 to 50 µM

====

Test system: Pseudomonas syringae pv. syringae EPS94
Format: cell-based
Conditions: 48 h
Where a SMILES comes first, the peptide text is derived from it. The star is where a group is joined. X1 = O=C(CCCCCCCCCCCO)*; Hexanoyl = CCCCCC(=O)*; Butyryl = CCCC(=O)*
Endpoint label: MIC Pss

What value of MIC Pss has been reported for the following compound? CC(C)C[C@@H]1NC(=O)[C@H](CCCCN)NC(=O)[C@H](CCCCN)NC(=O)[C@H](CCC(N)=O)NC(=O)[C@H](CC(C)C)NC(=O)[C@H](CCCCN)NC(=O)[C@H](CCCCN)NC(=O)[C@H](Cc2ccccc2)NC(=O)[C@H](CCCCNC(=O)CCCCCCCCCCCO)NC(=O)[C@H](CCCCN)NC1=O [BPC524, c(KKLKK(CO-C11H22OH)FKKLQ)] (cyclo(FKKLQKKLKK(X1))) 12.5 to 25 µM

Note, next up: CCCCCC(=O)NCCCC[C@@H]1NC(=O)[C@H](CCCCN)NC(=O)[C@H](CCC(N)=O)NC(=O)[C@H](CC(C)C)NC(=O)[C@H](CCCCN)NC(=O)[C@H](CCCCN)NC(=O)[C@H](Cc2ccccc2)NC(=O)[C@H](CCCCN)NC(=O)[C@H](CCCCN)NC(=O)[C@H](CC(C)C)NC1=O [BPC588] (cyclo(FKKLQKK(Hexanoyl)LKK)) 6.2 to 12.5 µM

Note, next up: CCCC(=O)NCCCC[C@@H]1NC(=O)[C@H](CCCCN)NC(=O)[C@H](CC(C)C)NC(=O)[C@H](CCCCN)NC(=O)[C@H](CCCCN)NC(=O)[C@H](CCC(N)=O)NC(=O)[C@H](CC(C)C)NC(=O)[C@H](CCCCN)NC(=O)[C@H](CCCCN)NC(=O)[C@H](Cc2ccccc2)NC1=O [BPC500, c(KKLKK(CO-C3H7)FKKLQ)] (cyclo(FKKLQKKLKK(Butyryl))) 6.2 to 12.5 µM

====

Please provide measured MIC Pss for the entries that follow.
Tested on: Pseudomonas syringae pv. syringae EPS94
Assay type: cell-based
Details: 48 h
Where a SMILES comes first, the peptide text is derived from it. Side-chain parts run from the residue outwards. [ ]: non-standard residue; d: D form. The star is where a group is joined. Palmitoyl = CCCCCCCCCCCCCCCC(=O)*; Pentanoyl(4-Me) = CC(C)CCC(=O)*; Octanoyl = CCCCCCCC(=O)*; Hexanoyl = CCCCCC(=O)*; Pentanoyl = CCCCC(=O)*; Butyryl = CCCC(=O)*

What value of MIC Pss has been reported for the following compound? CCCCCC(=O)N[C@@H](CCCCN)C(=O)N[C@@H](CC(C)C)C(=O)NCCCC[C@@H]1NC(=O)[C@H](CCCCN)NC(=O)[C@H](CC(C)C)NC(=O)[C@H](CCCCN)NC(=O)[C@H](CCCCN)NC(=O)[C@H](CCC(N)=O)NC(=O)[C@H](CC(C)C)NC(=O)[C@H](CCCCN)NC(=O)[C@H](CCCCN)NC(=O)[C@H](Cc2c[nH]cn2)NC1=O [BPC676, c(KKLKK(LK-CO-nC5H11)HKKLQ)] (cyclo(HKKLQKKLKK([Leu-Lys-Hexanoyl]))) 12.5 to 25 µM

Note, next up: CCCCC(=O)NCCCC[C@@H]1NC(=O)[C@H](CCCCN)NC(=O)[C@H](CC(C)C)NC(=O)[C@H](CCCCN)NC(=O)[C@H](CCCCN)NC(=O)[C@H](CCC(N)=O)NC(=O)[C@H](CC(C)C)NC(=O)[C@H](CCCCN)NC(=O)[C@H](CCCCN)NC(=O)[C@H](Cc2ccccc2)NC1=O [BPC526, c(KKLKK(CO-C4H9)FKKLQ)] (cyclo(FKKLQKKLKK(Pentanoyl))) 12.5 to 25 µM

Note, next up: CCCCCC(=O)NCCCC[C@H]1NC(=O)[C@H](CCC(N)=O)NC(=O)[C@H](CC(C)C)NC(=O)[C@H](CCCCN)NC(=O)[C@H](CCCCN)NC(=O)[C@H](Cc2ccccc2)NC(=O)[C@H](CCCCN)NC(=O)[C@H](CCCCN)NC(=O)[C@H](CC(C)C)NC(=O)[C@H](CCCCN)NC1=O [BPC684] (cyclo(FKKLQ[dK](Hexanoyl)KLKK)) 12.5 to 25 µM

Note, next up: CC(C)C[C@@H]1NC(=O)[C@H](CCCCN)NC(=O)[C@H](CCCCN)NC(=O)[C@H](CCC(N)=O)NC(=O)[C@H](CC(C)C)NC(=O)[C@H](CCCCN)NC(=O)[C@H](CCCCN)NC(=O)[C@H](Cc2ccccc2)NC(=O)[C@H](CCCCN)NC(=O)[C@H](CCCCN)NC1=O [BPC194] (cyclo(FKKLQKKLKK)) 3.1 to 6.2 µM

Note, next up: CCCCCCCC(=O)NCCCC[C@H]1NC(=O)[C@H](CCCCN)NC(=O)[C@H](CC(C)C)NC(=O)[C@H](CCCCN)NC(=O)[C@H](CCCCN)NC(=O)[C@H](CCC(N)=O)NC(=O)[C@H](CC(C)C)NC(=O)[C@H](CCCCN)NC(=O)[C@H](CCCCN)NC(=O)[C@H](Cc2ccccc2)NC1=O [BPC666, c(KKLKk(CO-C7H15)FKKLQ)] (cyclo(FKKLQKKLK[dK](Octanoyl))) 12.5 to 25 µM

Note, next up: CCCCCCCC(=O)NCCCC[C@@H]1NC(=O)[C@H](CCCCN)NC(=O)[C@H](CC(C)C)NC(=O)[C@H](CCCCN)NC(=O)[C@H](CCCCN)NC(=O)[C@H](CCC(N)=O)NC(=O)[C@H](CC(C)C)NC(=O)[C@H](CCCCN)NC(=O)[C@H](CCCCN)NC(=O)[C@H](Cc2ccccc2)NC1=O [BPC498, c(KKLKK(CO-C7H15)FKKLQ)] (cyclo(FKKLQKKLKK(Octanoyl))) 12.5 to 25 µM

Note, next up: CCCCCC(=O)N[C@@H](CCCCN)C(=O)N[C@@H](CC(C)C)C(=O)NCCCC[C@H]1NC(=O)[C@H](CCCCN)NC(=O)[C@H](CC(C)C)NC(=O)[C@H](CCCCN)NC(=O)[C@H](CCCCN)NC(=O)[C@H](CCC(N)=O)NC(=O)[C@H](CC(C)C)NC(=O)[C@H](CCCCN)NC(=O)[C@H](CCCCN)NC(=O)[C@H](Cc2ccccc2)NC1=O [BPC672, c(KKLKk(LK-CO-nC5H11)FKKLQ)] (cyclo(FKKLQKKLK[dK]([Leu-Lys-Hexanoyl]))) 6.2 to 12.5 µM

Note, next up: CCCCCC(=O)NCCCC[C@@H]1NC(=O)[C@H](CCC(N)=O)NC(=O)[C@H](CC(C)C)NC(=O)[C@H](CCCCN)NC(=O)[C@H](CCCCN)NC(=O)[C@H](Cc2c[nH]cn2)NC(=O)[C@H](CCCCN)NC(=O)[C@H](CCCCN)NC(=O)[C@H](CC(C)C)NC(=O)[C@H](CCCCN)NC1=O [BPC688] (cyclo(HKKLQK(Hexanoyl)KLKK)) 25 to 50 µM

Note, next up: CC(C)CCC(=O)NCCCC[C@@H]1NC(=O)[C@H](CCCCN)NC(=O)[C@H](CC(C)C)NC(=O)[C@H](CCCCN)NC(=O)[C@H](CCCCN)NC(=O)[C@H](CCC(N)=O)NC(=O)[C@H](CC(C)C)NC(=O)[C@H](CCCCN)NC(=O)[C@H](CCCCN)NC(=O)[C@H](Cc2ccccc2)NC1=O [BPC504, c(KKLKK(CO-isoC5H11)FKKLQ)] (cyclo(FKKLQKKLKK(Pentanoyl(4-Me)))) 6.2 to 12.5 µM

Note, next up: CCCC(=O)NCCCC[C@@H]1NC(=O)[C@H](CCCCN)NC(=O)[C@H](CCC(N)=O)NC(=O)[C@H](CC(C)C)NC(=O)[C@H](CCCCN)NC(=O)[C@H](CCCCN)NC(=O)[C@H](Cc2ccccc2)NC(=O)[C@H](CCCCN)NC(=O)[C@H](CCCCN)NC(=O)[C@H](CC(C)C)NC1=O [BPC708] (cyclo(FKKLQKK(Butyryl)LKK)) 12.5 to 25 µM

Note, next up: CCCCCCCCCCCCCCCC(=O)NCCCC[C@@H]1NC(=O)[C@H](CCCCN)NC(=O)[C@H](CC(C)C)NC(=O)[C@H](CCCCN)NC(=O)[C@H](CCCCN)NC(=O)[C@H](CCC(N)=O)NC(=O)[C@H](CC(C)C)NC(=O)[C@H](CCCCN)NC(=O)[C@H](CCCCN)NC(=O)[C@H](Cc2ccccc2)NC1=O [BPC502, c(KKLKK(CO-C15H31)FKKLQ)] (cyclo(FKKLQKKLKK(Palmitoyl))) >50 µM
